Listed here: items and their measured pKd.
Assay System: T1, recombinant human M-CSF (human, UniProt P09603 33-190, limits assumed)
T1 construct: The active form is described as a disulfide bonded dimer; also called M-SCF; CSF-1
T1 sequence: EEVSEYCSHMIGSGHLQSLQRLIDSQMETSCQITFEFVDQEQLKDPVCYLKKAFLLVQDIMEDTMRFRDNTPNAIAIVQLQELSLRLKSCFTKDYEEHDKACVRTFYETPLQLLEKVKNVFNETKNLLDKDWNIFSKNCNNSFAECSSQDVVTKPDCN
Assay Remarks: SPR (Biacore), M-CSF amine-coupled on CM5 chip, antibody flowed, 25 C, 1:1 model
Convention used: pKd is expressed as -log10 of the molar concentration.

Binder: heRX1-3.G2 (antibody, V domains shown, not shown: human Gamma-2 heavy chain constant region; human Kappa light chain constant region (the printed V regions end in EIKRT, which may overlap its start)) VH: DVQLQESGPGLVKPSQTLSLTCTVTDYSITSDYAWNWIRQFPGKKLEWMGYISYSGSTSYNPSLKSRITISRDTSKNQFSLQLNSVTAADTATYYCASFDYAHAMDYWGQGTTVTVSS VL: EIVLTQSPGTLSVSPGERVTFSCRASQSIGTSIHWYQQKTGQAPRLLIKYASERATGIPDRFSGSGSGTDFTLTISRVESEDFADYYCQQINSWPTTFGQGTKLEIKR
pKd: 8.23
--
Binder: heRX1-7.G2 (antibody, V domains shown, copies: 2 + 2) VH: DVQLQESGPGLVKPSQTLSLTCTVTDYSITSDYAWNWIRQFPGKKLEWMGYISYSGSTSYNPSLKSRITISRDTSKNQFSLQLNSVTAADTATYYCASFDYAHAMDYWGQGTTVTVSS VL: EIVLTQSPGTLSVSPGERVTFSCRASQSIGTSIHWYQQKTGQAPRLLIKYASESISGIPDRFSGSGSGTDFTLTISRVESEDFADYYCQQINSWPTTFGQGTKLEIK
pKd: 8.02
--
Binder: heRX1-4.G2 (antibody, V domains shown, not shown: human Gamma-2 heavy chain constant region; human Kappa light chain constant region (the printed V regions end in EIKRT, which may overlap its start)) VH: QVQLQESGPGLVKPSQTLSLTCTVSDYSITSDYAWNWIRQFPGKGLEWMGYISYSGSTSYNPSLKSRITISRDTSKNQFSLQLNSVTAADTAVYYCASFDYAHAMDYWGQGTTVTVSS VL: EIVLTQSPGTLSVSPGERVTFSCRASQSIGTSIHWYQQKTGQAPRLLIKYASERATGIPDRFSGSGSGTDFTLTISRVESEDFADYYCQQINSWPTTFGQGTKLEIKR
pKd: 8.34

# input for lookup
Exercise: Quickly give me recorded pKd for heRX1-2.G2 (antibody, V domains shown, not shown: human Gamma-2 heavy chain constant region; human Kappa light chain constant region (the printed V regions end in EIKRT, which may overlap its start)) VH: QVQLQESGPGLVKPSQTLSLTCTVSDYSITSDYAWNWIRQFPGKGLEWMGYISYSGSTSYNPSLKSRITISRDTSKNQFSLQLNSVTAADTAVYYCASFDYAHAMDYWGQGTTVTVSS VL: EIVLTQSPGTLSVSPGERVTFSCRASQSIGTSIHWYQQKTGQSPRLLIKYASERISGIPDRFSGSGSGTDFTLTISRVESEDFADYYCQQINSWPTTFGQGTKLEIKR
Solution: 8.12
